TEST_TARGET: Cytochrome b (Homo sapiens)
Sequence (P00156 whole entry): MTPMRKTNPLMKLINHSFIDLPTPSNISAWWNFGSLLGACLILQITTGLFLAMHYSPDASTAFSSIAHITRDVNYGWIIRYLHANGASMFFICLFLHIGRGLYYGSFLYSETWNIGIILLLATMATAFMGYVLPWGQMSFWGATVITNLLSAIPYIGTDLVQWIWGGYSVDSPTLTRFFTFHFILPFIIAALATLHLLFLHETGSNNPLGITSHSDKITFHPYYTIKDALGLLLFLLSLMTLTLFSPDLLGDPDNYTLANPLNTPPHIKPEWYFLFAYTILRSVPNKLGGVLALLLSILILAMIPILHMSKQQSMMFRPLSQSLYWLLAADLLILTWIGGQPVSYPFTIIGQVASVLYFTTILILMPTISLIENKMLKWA
pIC50: −log10 of the molar value.
MEASUREMENT_TYPE: pIC50

>>> print(df.to_string())
                                   molecule  measurement_type  assay_result
0  c1ccc(COc2cccc(-c3n[nH]c4ccccc34)c2)cc1 [Inz-46]             pIC50        < 4.19
1  c1ccc(-c2nn(Cc3ncon3)c3ccccc23)cc1 [Inz-78]             pIC50        < 4.19
2  COC(=O)Cn1nc(-c2cccc(CCc3ccccc3)c2)c2ccccc21 [Inz-45]             pIC50          5.93
3  COC(=O)Cn1ccc(-c2cccc(OCc3ccccc3)c2)n1 [Inz-48]             pIC50        < 4.19
4  COC(=O)Cn1nc(-c2cccc(OCCN(C)C)c2)c2ccccc21 [Inz-63]             pIC50        < 4.19

Ask | Give measured pIC50 for c1ccc(-c2nn(Cc3nn[nH]n3)c3ccccc23)cc1 [Inz-33] (Cytochrome b (Homo sapiens)).
Reply | < 4.19
